Cited source: the supplement of paper PMC12494721

Reported fold change of Putrescine concentration values for the following compounds.
test system: Escherichia coli IAI1; experiment: fold change of Putrescine concentration vs plate DMSO controls (fold change (ratio)); higher = more amine produced, active = hit call of the paper (significant change in both replicates, either direction); details: incubation time: 27 h, anaerobic, 37 °C
Structures can show the parent of a compound that is named as a salt.
Form field (numeric): enter value without unit.

- compound: "Nc1ccn([C@@H]2CS[C@H](CO)O2)c(=O)n1 [Lamivudine] (20 µM)"
  fold change of Putrescine concentration: 1.02
- compound: "Cc1cn[nH]c1 [Fomepizole] (20 µM)"
  fold change of Putrescine concentration: 0.999
- compound: "Cc1c(NC(C)C)c(=O)n(-c2ccccc2)n1C [Isopyrin hydrochloride] (20 µM)"
  fold change of Putrescine concentration: 1.14
- compound: "c1ccc2c(c1)Cc1ccccc1-2 [Fluorene] (20 µM)"
  fold change of Putrescine concentration: 1.05
- compound: "CC(C)NC(=N)NC(=N)Nc1ccc(Cl)cc1 [Proguanil hydrochloride] (20 µM)"
  fold change of Putrescine concentration: 1.09

Query: Provide value of fold change of Putrescine concentration for this record tested with Escherichia coli IAI1: C[C@H](NCc1ccc(OCc2cccc(F)c2)cc1)C(N)=O [Safinamide] (20 µM)
Reply: 1

Query: // lookup fold change of Putrescine concentration | system=Escherichia coli IAI1 | key= CCC1(c2ccccc2)NC(=O)N(C)C1=O (stereo not drawn) [Mephenytoin] (20 µM)
Reply: 1.06

Query: # returns recorded fold change of Putrescine concentration (system: Escherichia coli IAI1) for NC(=O)[C@@H]1CCCN1C(=O)[C@H](Cc1c[nH]cn1)NC(=O)[C@@H]1CCC(=O)N1 [Thyrotropin-Releasing Hormone] (20 µM)
Reply: 1.02

Query: Lab request: please report fold change of Putrescine concentration under test system Escherichia coli IAI1 for COc1cc2/c(=N/c3ccc(Br)cc3F)nc[nH]c2cc1OCC1CCN(C)CC1 [Vandetanib] (20 µM)
Reply: 0.989

Query: Any idea what fold change of Putrescine concentration came out for O=C(O)CSCC(=O)NC1CCSC1=O (stereo not drawn) [Erdosteine] (20 µM) on Escherichia coli IAI1?
Reply: 0.971

Query: Return fold change of Putrescine concentration measured with Escherichia coli IAI1 given this compound: COc1cc(NS(=O)(=O)c2ccc(N)cc2)ncn1 [Sulfamonomethoxine] (20 µM)
Reply: 0.911

====

system: Klebsiella aerogenes DSM 30053; experiment: fold change of Histamine concentration vs plate DMSO controls (fold change (ratio)); higher = more amine produced, active = hit call of the paper (significant change in both replicates, either direction); conditions: incubation time: 27 h, anaerobic, 37 °C
Counter-ions that a name gives are not always drawn.
property.label: fold change of Histamine concentration

Query: Data request, read-out fold change of Histamine concentration, for Cc1c(N(C)CS(=O)(=O)O)c(=O)n(-c2ccccc2)n1C [Dipyrone sodium salt] (20 µM)
Reply: 0.958 (inactive)

Query: I'd like to know its fold change of Histamine concentration. The molecule in question is COc1cc(C(=O)NCc2ccc(OCCN(C)C)cc2)cc(OC)c1OC [Trimethobenzamide hydrochloride] (20 µM)
Reply: 0.877 (inactive)

Query: Which fold change of Histamine concentration is listed for C#C[C@]1(O)CC[C@H]2[C@@H]3CCC4=CC(=O)CC[C@@H]4[C@H]3CC[C@@]21CC [(D-) Norgestrel] (20 µM) ?
Reply: 1.05 (inactive)

Query: Field request: fold change of Histamine concentration | item: CN(C)CCC[C@@]1(c2ccc(F)cc2)OCc2cc(C#N)ccc21 [Escitalopram oxalate] (20 µM)
Reply: 1.02 (inactive)
